# Target: T1, human LIV-1 (human, UniProt Q13433 29-755)
# T1 sequence (looked up): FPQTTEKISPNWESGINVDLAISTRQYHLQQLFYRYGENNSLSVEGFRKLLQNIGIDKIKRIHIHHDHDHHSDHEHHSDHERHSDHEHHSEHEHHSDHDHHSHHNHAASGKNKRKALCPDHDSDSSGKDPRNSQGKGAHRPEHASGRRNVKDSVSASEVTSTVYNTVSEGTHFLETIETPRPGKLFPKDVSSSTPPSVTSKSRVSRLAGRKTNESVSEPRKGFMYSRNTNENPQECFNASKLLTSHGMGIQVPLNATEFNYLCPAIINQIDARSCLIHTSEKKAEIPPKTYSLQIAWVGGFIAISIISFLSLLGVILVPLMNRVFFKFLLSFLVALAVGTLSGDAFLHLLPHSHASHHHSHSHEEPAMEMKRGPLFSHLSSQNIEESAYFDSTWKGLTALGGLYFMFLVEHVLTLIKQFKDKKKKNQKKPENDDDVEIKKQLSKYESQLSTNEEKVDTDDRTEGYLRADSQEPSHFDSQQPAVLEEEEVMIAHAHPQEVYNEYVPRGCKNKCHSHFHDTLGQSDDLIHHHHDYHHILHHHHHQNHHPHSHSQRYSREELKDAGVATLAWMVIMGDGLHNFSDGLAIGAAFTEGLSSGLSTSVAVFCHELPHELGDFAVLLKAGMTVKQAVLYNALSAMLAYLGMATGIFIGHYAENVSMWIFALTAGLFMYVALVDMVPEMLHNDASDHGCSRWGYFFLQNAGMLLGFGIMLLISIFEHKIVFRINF
# Procedure Text: cell-based or functional assay
Experimental Readout: Bottom (% viability), BT20/H_LIV1-High expression (%)

• LM-001-DXD (antibody, V domains shown, DXD drug moiety conjugated; site and chain not stated) VH: EVQLVQSGAEVKKPGASVKVSCKASGYTFTSYWIHWVRQAPGQGLEWMGTIYPGDADTRSTQKFKDRVTMTADTSTSTVYMELSSLRSEDTAVYYCARSLIHDDYDKYYFDYWGQGTTVTVSS VL: DIQMTQSPSSLSASVGDRVTITCKARQDINKYIAWYQQKPGKAPKLLIHYTSILQPGIPSRFSGSGSGRDYTFTISSLQPEDIATYYCLQYDYFFTFGGGTKVEIK = 43.7
• LM-001-LM-D03 (antibody, V domains shown, LM-D03 drug-linker conjugated; site and chain not stated) VH: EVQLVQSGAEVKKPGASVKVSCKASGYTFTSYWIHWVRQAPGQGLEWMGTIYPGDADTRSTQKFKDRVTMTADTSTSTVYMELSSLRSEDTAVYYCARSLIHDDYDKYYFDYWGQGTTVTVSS VL: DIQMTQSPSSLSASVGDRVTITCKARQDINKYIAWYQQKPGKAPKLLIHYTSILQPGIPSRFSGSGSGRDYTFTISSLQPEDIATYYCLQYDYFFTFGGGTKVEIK = 19.5
• 290F10G10.z2-MMAE (antibody, V domains shown, MMAE drug moiety conjugated; site and chain not stated, also called LM-001-MMAE) VH: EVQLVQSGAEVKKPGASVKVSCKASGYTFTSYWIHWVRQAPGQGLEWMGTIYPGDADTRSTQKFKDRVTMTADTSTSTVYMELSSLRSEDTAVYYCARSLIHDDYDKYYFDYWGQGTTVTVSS VL: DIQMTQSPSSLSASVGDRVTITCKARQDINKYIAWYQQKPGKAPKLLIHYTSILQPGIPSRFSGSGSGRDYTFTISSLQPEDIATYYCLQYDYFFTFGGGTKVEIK = 29.1
